Tested on: Mus musculus
Experimental Protocol: Toxicity in mouse L1210 cells implanted CDF1 mouse assessed as average weight gain at 0.8 mg/kg, ip qd for 1 to 5 days
Format: organism-based
Design: dose 0.8 mg/kg, route intraperitoneal
Condition Context: in vivo

Smiles Str: CC[C@@]1(O)C[C@H](O[C@H]2C[C@H](N(C)C)[C@H](O[C@H]3C[C@H](O)[C@H](O)[C@H](C)O3)[C@H](C)O2)c2c(cc3c(c2O)C(=O)c2c(O)ccc(O)c2C3=O)[C@H]1C(=O)OC
weight gain / g: 1.4

Smiles Str: CC[C@@]1(O)C[C@H](O[C@H]2C[C@H](NC)[C@H](O[C@H]3C[C@H](O)[C@H](O)[C@H](C)O3)[C@H](C)O2)c2c(cc3c(c2O)C(=O)c2c(O)ccc(O)c2C3=O)[C@H]1C(=O)OC
weight gain / g: 3.5
